For each entry below, report its pIC50 value.
TARGET_DESC: SQR of 06STD024 (SDHC / altC) mitochondria (Zymoseptoria tritici, UniProt A0A1X7RQW2+F9X9V6+F9XH52+O42772)
Sequence (A0A1X7RQW2 36-181): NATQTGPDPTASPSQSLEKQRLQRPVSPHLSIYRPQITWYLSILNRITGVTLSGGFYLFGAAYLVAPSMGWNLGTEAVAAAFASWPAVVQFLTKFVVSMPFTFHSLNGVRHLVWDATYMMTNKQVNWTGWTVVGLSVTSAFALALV
Sequence (O42772 19-297): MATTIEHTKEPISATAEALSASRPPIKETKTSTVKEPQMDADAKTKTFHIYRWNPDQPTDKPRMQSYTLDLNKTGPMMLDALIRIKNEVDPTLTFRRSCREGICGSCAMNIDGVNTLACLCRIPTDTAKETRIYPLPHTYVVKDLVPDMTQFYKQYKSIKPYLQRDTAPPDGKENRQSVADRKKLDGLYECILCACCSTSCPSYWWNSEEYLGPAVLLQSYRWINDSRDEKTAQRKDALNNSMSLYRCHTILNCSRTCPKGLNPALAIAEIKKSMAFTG
Sequence (F9X9V6 1-193): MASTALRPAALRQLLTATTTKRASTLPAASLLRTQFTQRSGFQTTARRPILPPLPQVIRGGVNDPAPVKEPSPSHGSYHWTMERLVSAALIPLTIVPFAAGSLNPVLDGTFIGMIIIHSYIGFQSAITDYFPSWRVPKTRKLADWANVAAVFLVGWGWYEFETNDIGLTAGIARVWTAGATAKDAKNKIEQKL
Sequence (F9XH52 44-187): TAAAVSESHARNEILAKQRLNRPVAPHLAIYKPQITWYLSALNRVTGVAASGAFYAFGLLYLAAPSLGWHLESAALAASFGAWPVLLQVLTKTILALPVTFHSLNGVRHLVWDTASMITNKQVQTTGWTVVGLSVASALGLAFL
Sequence (F9WWR1 29-643 partner): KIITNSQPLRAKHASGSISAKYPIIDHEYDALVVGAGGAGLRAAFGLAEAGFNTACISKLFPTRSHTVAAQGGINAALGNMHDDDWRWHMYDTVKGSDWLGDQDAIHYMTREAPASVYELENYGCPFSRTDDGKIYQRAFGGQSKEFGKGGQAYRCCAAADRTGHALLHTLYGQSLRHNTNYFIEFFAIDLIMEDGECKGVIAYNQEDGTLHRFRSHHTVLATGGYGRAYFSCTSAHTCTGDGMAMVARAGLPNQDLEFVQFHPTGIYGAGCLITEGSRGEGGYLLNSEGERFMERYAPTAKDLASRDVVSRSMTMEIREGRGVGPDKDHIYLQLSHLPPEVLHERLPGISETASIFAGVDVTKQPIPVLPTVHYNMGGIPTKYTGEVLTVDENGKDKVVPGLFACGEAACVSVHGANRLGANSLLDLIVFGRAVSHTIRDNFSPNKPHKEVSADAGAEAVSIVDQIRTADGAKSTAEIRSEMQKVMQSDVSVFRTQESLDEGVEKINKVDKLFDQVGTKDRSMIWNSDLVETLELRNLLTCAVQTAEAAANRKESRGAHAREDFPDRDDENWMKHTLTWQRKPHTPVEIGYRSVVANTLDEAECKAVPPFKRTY
PROCEDURE_SUMMARY: Succinate-quinone (SQR) SDHI sensitivity assay on purified mitochondria, 06STD024
STUDY_CONDITIONS: mitochondria of field isolate 06STD024; mean of three ± SD
Give bare numbers, as −log10 of the molar value.

MOLECULE: Cn1cc(C(=O)Nc2ccc(F)cc2-c2ccc(Cl)c(Cl)c2)c(C(F)F)n1
TEST_RESULT: 8.74

Give measured pIC50 for every item shown.
1. CC(C)CC(C)c1sccc1NC(=O)c1cn(C)nc1C(F)(F)F (stereo not drawn)
2. O=C(Nc1ccccc1-c1ccc(Cl)cc1)c1cccnc1Cl

1. 8.70
2. 7.21

====

TARGET_DESC: SQR of 06STD024 (SDHC / altC) mitochondria (Zymoseptoria tritici, UniProt A0A1X7RQW2+F9X9V6+F9XH52+O42772)
PROCEDURE_SUMMARY: Succinate-quinone (SQR) SDHI sensitivity assay on purified mitochondria, 06STD024
STUDY_CONDITIONS: mitochondria of field isolate 06STD024; mean of three ± SD
Friendly reminder: IC50 below 4 nM is Fulfilled, at or above is Not fulfilled.

Some solved cases for reference:
MOLECULE: O=C(NCCc1ncc(C(F)(F)F)cc1Cl)c1ccccc1C(F)(F)F
GROUP_LABEL: Not fulfilled

MOLECULE: Cn1cc(C(=O)Nc2ccccc2-c2cc(F)c(F)c(F)c2)c(C(F)F)n1
GROUP_LABEL: Fulfilled

MOLECULE: CON(C(=O)c1cn(C)nc1C(F)F)[C@@H](C)Cc1ccc(Cl)cc1Cl
GROUP_LABEL: Not fulfilled

MOLECULE: Cn1cc(C(=O)NCCc2ccc(Cl)cc2Cl)c(C(F)F)n1
GROUP_LABEL: Not fulfilled

MOLECULE: Cn1cc(C(=O)Nc2cccc3c2[C@@H]2CC[C@H]3C2=C(Cl)Cl)c(C(F)F)n1 (racemic)
GROUP_LABEL: Fulfilled

MOLECULE: CC1=C(C(=O)Nc2ccccc2)SCCO1
GROUP_LABEL: Not fulfilled

API: query returns whether the molecule falls strictly under 4 nM in IC50. Query: C[C@@H](Cc1ccc(Cl)cc1Cl)NC(=O)c1cn(C)nc1C(F)F
Not fulfilled

Also CC(C)C1C2CCC1c1c(NC(=O)c3cn(C)nc3C(F)F)cccc12 (stereo not drawn) , if possible.
Fulfilled

Also CON(C(=O)c1cn(C)nc1C(F)F)[C@@H](C)Cc1c(Cl)cc(Cl)cc1Cl , if possible.
Fulfilled

====

TARGET_DESC: SQR of 06STD024 (SDHC / altC) mitochondria (Zymoseptoria tritici, UniProt A0A1X7RQW2+F9X9V6+F9XH52+O42772)
PROCEDURE_SUMMARY: Succinate-quinone (SQR) SDHI sensitivity assay on purified mitochondria, 06STD024
Type: biochemical
STUDY_CONDITIONS: IC50 ratio compared to IPO323 values
READOUT: RF (resistance factor), 06STD024 (SDHC / altC)
Numbers only.

Here are 4 compounds together with their reported answers.
COMPOUND: CON(C(=O)c1cn(C)nc1C(F)F)[C@@H](C)Cc1c(Cl)cc(Cl)cc1Cl [Pydiflumetofen]
TEST_RESULT: 4.6
--
COMPOUND: CC(C)CC(C)c1sccc1NC(=O)c1cn(C)nc1C(F)(F)F (stereo not drawn) [Penthiopyrad]
TEST_RESULT: 1.4
--
COMPOUND: Cn1cc(C(=O)Nc2ccc(F)cc2-c2ccc(Cl)c(Cl)c2)c(C(F)F)n1 [Bixafen]
TEST_RESULT: 1.3
--
COMPOUND: CC1=C(C(=O)Nc2ccccc2)SCCO1 [Carboxin]
TEST_RESULT: 0.8

Give measured RF (resistance factor), 06STD024 (SDHC / altC) for every item shown.
1. O=C(NCCc1ncc(C(F)(F)F)cc1Cl)c1ccccc1C(F)(F)F [Fluopyram]
2. Cn1cc(C(=O)Nc2cccc3c2[C@@H]2CC[C@H]3C2=C(Cl)Cl)c(C(F)F)n1 (racemic) [Benzovindiflupyr]
3. Cn1cc(C(=O)Nc2ccccc2-c2cc(F)c(F)c(F)c2)c(C(F)F)n1 [Fluxapyroxad]
4. O=C(Nc1ccccc1-c1ccc(Cl)cc1)c1cccnc1Cl [Boscalid]
5. CC(C)C1C2CCC1c1c(NC(=O)c3cn(C)nc3C(F)F)cccc12 (stereo not drawn) [Isopyrazam]

[111.3, 0.8, 0.8, 3.6, 3.3]
